# Tested on: 233499-124-R-J3-PDC complex spheroid viability
# Assay overview: Anticancer human tumor 233499-124-R-J3-PDC patient-derived colon adenocarcinoma cell line growth inhibition [CLK]
# Assay setup: second compound 0.1 µM; first compound 10 µM; hits give low values
Category key, based on recorded viability, T/C: bottom bin = under 20%, middle bin = from 20% up to 50%, top bin = 50% and over

CC1(C)CCC(CN2CCN(c3ccc(C(=O)NS(=O)(=O)c4ccc(NCC5CCOCC5)c([N+](=O)[O-])c4)c(Oc4cnc5[nH]ccc5c4)c3)CC2)=C(c2ccc(Cl)cc2)C1 + CNC(=O)c1ccc(Nc2nc(OC3CCCC3)c3c(-c4ccc5nc(C)oc5c4)c[nH]c3n2)c(OC)c1    middle bin
CCCS(=O)(=O)Nc1ccc(F)c(C(=O)c2c[nH]c3ncc(-c4ccc(Cl)cc4)cc23)c1F + CN1CCN(c2cc(C(=O)Nc3cc4cc(-c5cnn(C)c5)ccc4cn3)ccn2)CC1    top bin
O=c1[nH]cc(F)c(=O)[nH]1 + CN1CCN(c2cc(C(=O)Nc3cc4cc(-c5cnn(C)c5)ccc4cn3)ccn2)CC1    middle bin
C=C(F)C(=O)N1CCN(c2nc(OCC3CCCN3C)nc3c2CCN(c2cccc4cccc(Cl)c24)C3)CC1CC#N (centres undefined) + CN1CCN(c2cc(C(=O)Nc3cc4cc(-c5cnn(C)c5)ccc4cn3)ccn2)CC1    top bin
CC1COCCN1c1cc(C2(S(C)(=N)=O)CC2)nc(-c2ccnc3[nH]ccc23)n1 (centres undefined) + CN1CCN(c2cc(C(=O)Nc3cc4cc(-c5cnn(C)c5)ccc4cn3)ccn2)CC1    top bin
CC(=O)O[C@H]1C(=O)[C@@]2(C)[C@H]([C@H](OC(=O)c3ccccc3)[C@]3(O)C[C@H](OC(=O)[C@H](O)[C@@H](NC(=O)c4ccccc4)c4ccccc4)C(C)=C1C3(C)C)[C@]1(OC(C)=O)CO[C@@H]1C[C@@H]2O + CN1CCN(c2cc(C(=O)Nc3cc4cc(-c5cnn(C)c5)ccc4cn3)ccn2)CC1    bottom bin
C=C(F)C(=O)N1CCN(c2nc(OCC3CCCN3C)nc3c2CCN(c2cccc4cccc(Cl)c24)C3)CC1CC#N (centres undefined) + CNC(=O)c1ccc(Nc2nc(OC3CCCC3)c3c(-c4ccc5nc(C)oc5c4)c[nH]c3n2)c(OC)c1    middle bin
Nc1ccccc1NC(=O)c1ccc(CNC(=O)OCc2cccnc2)cc1 + CN1CCN(c2cc(C(=O)Nc3cc4cc(-c5cnn(C)c5)ccc4cn3)ccn2)CC1    bottom bin
COc1cccc2c1C(=O)c1c(O)c3c(c(O)c1C2=O)CC(O)(C(=O)CO)CC3OC1CC(N)C(O)C(C)O1 (centres undefined) + CNC(=O)c1ccc(Nc2nc(OC3CCCC3)c3c(-c4ccc5nc(C)oc5c4)c[nH]c3n2)c(OC)c1    bottom bin
CC(Nc1ccc2c(c1)OCCn1cc(N3C(=O)OCC3C(F)F)nc1-2)C(N)=O (centres undefined) + CNC(=O)c1ccc(Nc2nc(OC3CCCC3)c3c(-c4ccc5nc(C)oc5c4)c[nH]c3n2)c(OC)c1    middle bin

[ask] For this compound, which bin applies? COc1ccc([C@@H](O)c2cc(-c3ncnc4cc(N5CCOCC5)ccc34)c(F)cc2Cl)nn1 + CNC(=O)c1ccc(Nc2nc(OC3CCCC3)c3c(-c4ccc5nc(C)oc5c4)c[nH]c3n2)c(OC)c1
[reply] top bin

[ask] For this compound, which bin applies? CC(=O)O[C@H]1C(=O)[C@@]2(C)[C@H]([C@H](OC(=O)c3ccccc3)[C@]3(O)C[C@H](OC(=O)[C@H](O)[C@@H](NC(=O)c4ccccc4)c4ccccc4)C(C)=C1C3(C)C)[C@]1(OC(C)=O)CO[C@@H]1C[C@@H]2O + CNC(=O)c1ccc(Nc2nc(OC3CCCC3)c3c(-c4ccc5nc(C)oc5c4)c[nH]c3n2)c(OC)c1
[reply] top bin

[ask] For this compound, which bin applies? COc1cccc2c1C(=O)c1c(O)c3c(c(O)c1C2=O)CC(O)(C(=O)CO)CC3OC1CC(N)C(O)C(C)O1 (centres undefined) + CN1CCN(c2cc(C(=O)Nc3cc4cc(-c5cnn(C)c5)ccc4cn3)ccn2)CC1
[reply] bottom bin

[ask] For this compound, which bin applies? O=C(c1cc(Cc2n[nH]c(=O)c3ccccc23)ccc1F)N1CCN(C(=O)C2CC2)CC1 + CNC(=O)c1ccc(Nc2nc(OC3CCCC3)c3c(-c4ccc5nc(C)oc5c4)c[nH]c3n2)c(OC)c1
[reply] top bin

[ask] For this compound, which bin applies? COC1C=CCC(C)C(C)S(=O)(=O)NC(=O)c2ccc3c(c2)N(CC2CCC21)CC1(CCCc2cc(Cl)ccc21)CO3 (centres undefined) + CNC(=O)c1ccc(Nc2nc(OC3CCCC3)c3c(-c4ccc5nc(C)oc5c4)c[nH]c3n2)c(OC)c1
[reply] bottom bin

[ask] For this compound, which bin applies? Nc1ccn(C2OC(CO)C(O)C2(F)F)c(=O)n1 (centres undefined) + CN1CCN(c2cc(C(=O)Nc3cc4cc(-c5cnn(C)c5)ccc4cn3)ccn2)CC1
[reply] middle bin

[ask] For this compound, which bin applies? Nc1ccccc1NC(=O)c1ccc(CNC(=O)OCc2cccnc2)cc1 + CNC(=O)c1ccc(Nc2nc(OC3CCCC3)c3c(-c4ccc5nc(C)oc5c4)c[nH]c3n2)c(OC)c1
[reply] bottom bin

* * *

# Test system: 233499-124-R-J3-PDC complex spheroid viability
# Assay overview: Anticancer human tumor 233499-124-R-J3-PDC cell line growth inhibition [CLK]; active = viability on the fitted dose curve at most 10% of control; inactive = the rest;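 further: spheroids exposed to the drug combinations for seven days; percent viability relative to DMSO vehicle control wells taken as 100%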
# Assay setup: second compound 0.316 µM; first compound 10 µM
Choose the fitting class; nothing outside class 1 (active), class 0 (inactive) is accepted.

COc1cccc2c1C(=O)c1c(O)c3c(c(O)c1C2=O)CC(O)(C(=O)CO)CC3OC1CC(N)C(O)C(C)O1 (centres undefined) + CNC(=O)c1ccc(Nc2nc(OC3CCCC3)c3c(-c4ccc5nc(C)oc5c4)c[nH]c3n2)c(OC)c1    class 1
C=CC(=O)N1CCN(c2nc(=O)n(-c3c(C)ccnc3C(C)C)c3nc(-c4c(O)cccc4F)c(F)cc23)C(C)C1 (centres undefined) + CN1CCN(c2cc(C(=O)Nc3cc4cc(-c5cnn(C)c5)ccc4cn3)ccn2)CC1    class 0
CCCS(=O)(=O)Nc1ccc(F)c(C(=O)c2c[nH]c3ncc(-c4ccc(Cl)cc4)cc23)c1F + CNC(=O)c1ccc(Nc2nc(OC3CCCC3)c3c(-c4ccc5nc(C)oc5c4)c[nH]c3n2)c(OC)c1    class 0
COc1ccc([C@@H](O)c2cc(-c3ncnc4cc(N5CCOCC5)ccc34)c(F)cc2Cl)nn1 + CNC(=O)c1ccc(Nc2nc(OC3CCCC3)c3c(-c4ccc5nc(C)oc5c4)c[nH]c3n2)c(OC)c1    class 0
CC(=O)O[C@H]1C(=O)[C@@]2(C)[C@H]([C@H](OC(=O)c3ccccc3)[C@]3(O)C[C@H](OC(=O)[C@H](O)[C@@H](NC(=O)c4ccccc4)c4ccccc4)C(C)=C1C3(C)C)[C@]1(OC(C)=O)CO[C@@H]1C[C@@H]2O + CNC(=O)c1ccc(Nc2nc(OC3CCCC3)c3c(-c4ccc5nc(C)oc5c4)c[nH]c3n2)c(OC)c1    class 0
C=CC(=O)N1CCN(c2nc(=O)n(-c3c(C)ccnc3C(C)C)c3nc(-c4c(O)cccc4F)c(F)cc23)C(C)C1 (centres undefined) + CNC(=O)c1ccc(Nc2nc(OC3CCCC3)c3c(-c4ccc5nc(C)oc5c4)c[nH]c3n2)c(OC)c1    class 0
O=C(c1cc(Cc2n[nH]c(=O)c3ccccc23)ccc1F)N1CCN(C(=O)C2CC2)CC1 + CNC(=O)c1ccc(Nc2nc(OC3CCCC3)c3c(-c4ccc5nc(C)oc5c4)c[nH]c3n2)c(OC)c1    class 0
C=C(F)C(=O)N1CCN(c2nc(OCC3CCCN3C)nc3c2CCN(c2cccc4cccc(Cl)c24)C3)CC1CC#N (centres undefined) + CNC(=O)c1ccc(Nc2nc(OC3CCCC3)c3c(-c4ccc5nc(C)oc5c4)c[nH]c3n2)c(OC)c1    class 0

[ask] Identify the outcome logged in this assay for the molecule shown: CCCS(=O)(=O)Nc1ccc(F)c(C(=O)c2c[nH]c3ncc(-c4ccc(Cl)cc4)cc23)c1F + CN1CCN(c2cc(C(=O)Nc3cc4cc(-c5cnn(C)c5)ccc4cn3)ccn2)CC1
[reply] class 0

* * *

# Tested on: 233499-124-R-J3-PDC complex spheroid viability
# Assay overview: Anticancer human tumor 233499-124-R-J3-PDC cell line growth inhibition [CLK]; active = viability on the fitted dose curve at most 10% of control; inactive = the rest;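 further: spheroids exposed to the drug combinations for seven days; percent viability relative to DMSO vehicle control wells taken as 100%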
# Assay setup: second compound 1 µM; first compound 0.0316 µM
Choose the fitting class; nothing outside active, inactive is accepted.

C=CC(=O)N1CCN(c2nc(=O)n(-c3c(C)ccnc3C(C)C)c3nc(-c4c(O)cccc4F)c(F)cc23)C(C)C1 (centres undefined) + CNC(=O)c1ccc(Nc2nc(OC3CCCC3)c3c(-c4ccc5nc(C)oc5c4)c[nH]c3n2)c(OC)c1    inactive
Cn1ncnc1[C@H]1c2n[nH]c(=O)c3cc(F)cc(c23)N[C@@H]1c1ccc(F)cc1 + CN1CCN(c2cc(C(=O)Nc3cc4cc(-c5cnn(C)c5)ccc4cn3)ccn2)CC1    active
O=C(c1cc(Cc2n[nH]c(=O)c3ccccc23)ccc1F)N1CCN(C(=O)C2CC2)CC1 + CN1CCN(c2cc(C(=O)Nc3cc4cc(-c5cnn(C)c5)ccc4cn3)ccn2)CC1    active
CCN1CCN(Cc2ccc(Nc3ncc(F)c(-c4cc(F)c5nc(C)n(C(C)C)c5c4)n3)nc2)CC1 + CN1CCN(c2cc(C(=O)Nc3cc4cc(-c5cnn(C)c5)ccc4cn3)ccn2)CC1    active
COC1C=CCC(C)C(C)S(=O)(=O)NC(=O)c2ccc3c(c2)N(CC2CCC21)CC1(CCCc2cc(Cl)ccc21)CO3 (centres undefined) + CNC(=O)c1ccc(Nc2nc(OC3CCCC3)c3c(-c4ccc5nc(C)oc5c4)c[nH]c3n2)c(OC)c1    inactive

Alright, here's another molecule for you.
[ask] Identify the outcome logged in this assay for the molecule shown: Nc1ccccc1NC(=O)c1ccc(CNC(=O)OCc2cccnc2)cc1 + CNC(=O)c1ccc(Nc2nc(OC3CCCC3)c3c(-c4ccc5nc(C)oc5c4)c[nH]c3n2)c(OC)c1
[reply] inactive
